System: Escherichia coli ATCC 25922
assay metric: MIC

compound | test target | MIC
C[C@H](NC(=O)[C@H](CCCCN)NC(=O)[C@H](Cc1c[nH]c2ccccc12)NC(=O)[C@H](Cc1c[nH]c2ccccc12)NC(=O)CNC(=O)[C@@H]1CCCN1C(=O)[C@H](CCCCN)NC(=O)[C@H](CCCCN)NC(=O)CN)C(=O)N[C@@H](CCCCN)C(N)=O | Escherichia coli ATCC 25922 | > 211 µM
CC[C@H](C)[C@H](NC(=O)[C@H](CCCCN)NC(=O)[C@H](CCCCN)NC(=O)[C@@H](NC(=O)[C@@H](NC(=O)[C@H](CCCCN)NC(=O)[C@H](CCCCN)NC(=O)[C@@H](NC(=O)[C@@H](NC(=O)CN)[C@@H](C)CC)[C@@H](C)CC)[C@@H](C)CC)[C@@H](C)CC)C(N)=O | Escherichia coli ATCC 25922 | ≥ 32 µM

Shifting focus to the compound that follows.
input: Look up and report measured MIC (Escherichia coli ATCC 25922) for the following compound: "CSCC[C@H](NC(=O)[C@@H](NC(=O)[C@@H](NC(=O)[C@H](CC(C)C)NC(=O)[C@@H]1CCCN1C(=O)[C@H](CC(C)C)NC(=O)[C@@H](N)Cc1ccccc1)C(C)C)[C@@H](C)O)C(=O)N[C@@H](CC(C)C)C(=O)N[C@@H](CC(C)C)C(=O)NCC(=O)N[C@@H](CCCCN)C(=O)N[C@@H](CC(C)C)C(=O)N[C@@H](Cc1ccccc1)C(N)=O"
output: > 160 µM

----------
Observed MIC for Escherichia coli ATCC 25922, reported per entry below.

Answered examples (5):
compound | MIC
CC[C@H](C)[C@H](N)C(=O)N[C@@H](CC(C)C)C(=O)NCC(=O)N[C@@H](CC(C)C)C(=O)N[C@H](C(=O)N[C@H](C(=O)N[C@@H](CO)C(=O)N[C@H](C(=O)N[C@H](C(=O)NCC(=O)N[C@@H](CC(N)=O)C(=O)N[C@H](C(=O)N[C@@H](CC(C)C)C(=O)NCC(=O)NCC(=O)N[C@@H](CC(C)C)C(=O)N[C@@H](CC(C)C)C(=O)N[C@@H](CCCCN)C(=O)N[C@@H](CC(N)=O)C(=O)N[C@@H](CC(C)C)C(N)=O)C(C)C)[C@@H](C)CC)[C@@H](C)O)[C@@H](C)CC)C(C)C | > 49.8 µM
CC(C)C[C@H](NC(=O)[C@@H](NC(=O)[C@@H](NC(=O)[C@@H](N)CC(C)C)C(C)C)[C@@H](C)O)C(=O)N[C@H](C(=O)N[C@@H](Cc1ccccc1)C(=O)N[C@H](C(=O)O)C(C)C)C(C)C | > 128 µM
CC[C@H](C)[C@@H]1NC(=O)CNC(=O)[C@H](CCCN=C(N)N)NC(=O)CNC(=O)[C@@H]2CSSC[C@H](NC1=O)C(=O)N[C@@H](Cc1ccc(O)cc1)C(=O)N[C@@H](CCCN=C(N)N)C(=O)N[C@@H](CCCN=C(N)N)C(=O)N[C@H](C(=O)N[C@@H](CCCN=C(N)N)C(=O)O)CSSC[C@H](NC(=O)[C@H](Cc1c[nH]c3ccccc13)NC(=O)[C@@H](N)CCCCN)C(=O)N[C@@H](Cc1ccccc1)C(=O)N[C@@H](CCCN=C(N)N)C(=O)N[C@@H](C(C)C)C(=O)N2 | 0.231 µM
CC(C)C[C@H](NC(=O)[C@H](CC(C)C)NC(=O)[C@H](CCCCN)NC(=O)CNC(=O)[C@H](CC(C)C)NC(=O)[C@H](CC(C)C)NC(=O)[C@H](CO)NC(=O)[C@H](CC(C)C)NC(=O)[C@H](CC(C)C)NC(=O)[C@H](CO)NC(=O)[C@H](C)NC(=O)[C@H](CC(C)C)NC(=O)CN)C(N)=O | > 25 µM
CC[C@H](C)[C@H](NC(=O)[C@H](CCCN=C(N)N)NC(=O)[C@H](CCCCN)NC(=O)[C@@H](N)Cc1ccccc1)C(=O)NCC(=O)N[C@@H](CCC(N)=O)C(=O)N[C@@H](CCCN=C(N)N)C(=O)N[C@H](C(=O)N[C@@H](CCCCN)C(=O)N[C@@H](CC(=O)O)C(=O)N[C@@H](Cc1ccccc1)C(=O)N[C@@H](CC(C)C)C(=O)N[C@@H](CCCN=C(N)N)C(=O)O)[C@@H](C)CC | 5 µM

input: Look up and report measured MIC (Escherichia coli ATCC 25922) for the following molecule: "CC[C@H](C)[C@H](N)C(=O)N[C@@H](CC(C)C)C(=O)NCC(=O)N[C@H](C(=O)N[C@H](C(=O)N[C@@H](CC(C)C)C(=O)NCC(=O)N1CCC[C@H]1C(=O)N[C@@H](CC(C)C)C(=O)N[C@@H](CCCCN)C(=O)NCC(=O)N[C@@H](CC(C)C)C(N)=O)[C@@H](C)CC)[C@@H](C)O"
output: > 256 µM

input: Look up and report measured MIC (Escherichia coli ATCC 25922) for the following molecule: "CC(C)[C@H](NC(=O)[C@H](Cc1ccc(O)cc1)NC(=O)[C@H](CO)NC(=O)[C@H](CCCCN)NC(=O)[C@@H](N)Cc1c[nH]c2ccccc12)C(=O)N[C@@H](CCCN=C(N)N)C(=O)N[C@@H](CCCN=C(N)N)C(=O)N[C@@H](Cc1c[nH]c2ccccc12)C(=O)N[C@@H](CCCN=C(N)N)C(N)=O"
output: 64 µM

input: Look up and report measured MIC (Escherichia coli ATCC 25922) for the following molecule: "NC(=O)C[C@H](N)C(=O)N[C@@H](Cc1cnc[nH]1)C(=O)N[C@@H](Cc1cnc[nH]1)C(=O)N[C@@H](CCCN=C(N)N)C(=O)N[C@@H](CCCN=C(N)N)C(=O)N[C@@H](Cc1cnc[nH]1)C(=O)N[C@@H](Cc1cnc[nH]1)C(=O)N[C@@H](CCCN=C(N)N)C(=O)N[C@@H](CS)C(=O)N[C@@H](CCCN=C(N)N)C(=O)O"
output: > 22.7 µM

The reported measurements were obtained from DBAASP.
